Tested on: Cavia porcellus
Experiment: Bronchodilator activity in guinea pig assessed as protection against histamine aerosol-induced bronchoconstriction at 100 mg/kg, ip treated for 15 mins prior to histamine aerosol-challenge measured after 5 mins relative to control
Format: functional
Details: route intraperitoneal
Test readout: Activity (%)
Lab book: enter the figure in %, no units written.

Examples with their reported Activity follow.
>>> meas_value("CC(C)c1cccc2c1CCc1cc(C(=O)O)ccc1C2=O")
25
>>> meas_value("CC(=O)c1ccc2c(c1)C(=O)c1ccc(C(=O)O)cc1CC2")
25
>>> meas_value("O=C(O)c1ccc2c(c1)C(=O)c1cc(Br)ccc1CC2")
62.5
>>> meas_value("O=C(O)c1ccc2c(c1)CCc1ccc(Cl)cc1C2=O")
0
>>> meas_value("O=C(O)c1cccc2c1CCc1ccccc1C2=O")
0
>>> meas_value("O=C(O)c1ccc2c(=O)c3cccc(Br)c3ccc2c1")
25

Field: next compound
Problem: Provide only the value of recorded Activity for O=C(O)c1ccc2c(c1)C(=O)c1ccc(Br)cc1CC2
Solution: 0

* * *

Listed here: items and their measured Activity.
Test system: Cavia porcellus
Assay: Bronchodilator activity in guinea pig assessed as protection against histamine aerosol-induced bronchoconstriction at 100 mg/kg, ip treated for 15 mins prior to histamine aerosol-challenge measured after 5 mins relative to control
Type: functional
Conditions: route intraperitoneal
Lab book: enter the figure in %, no units written.

>>> meas_value("O=C(O)c1ccc2c(c1)CCc1ccc(Br)cc1C2=O")
50

Problem: Provide only the value of recorded Activity for CC(=O)c1ccc2c(c1)C(=O)c1cc(C(=O)O)ccc1CC2
Solution: 62.5

Problem: Provide only the value of recorded Activity for O=C(O)c1ccc2c(c1)C(=O)c1ccc(Cl)cc1CC2
Solution: 25

Problem: Provide only the value of recorded Activity for Cc1cccc2c1CCc1cc(C(=O)O)ccc1C2=O
Solution: 87.5

Problem: Provide only the value of recorded Activity for COc1ccc2c(c1)CCc1cc(C(=O)O)ccc1C2=O
Solution: 37.5

Problem: Provide only the value of recorded Activity for O=C(O)c1ccc2c(c1)C(=O)c1cc(Cl)ccc1CC2
Solution: 25

* * *

Test system: Cavia porcellus
Test: Bronchodilator activity in guinea pig assessed as protection against histamine aerosol-induced bronchoconstriction at 100 mg/kg, ip treated for 15 mins prior to histamine aerosol-challenge measured after 5 mins relative to control
Assay type: functional
Details: route intraperitoneal
Test readout: Activity (%)
Lab book: enter the figure in %, no units written.

Examples with their reported Activity follow.
>>> meas_value("O=C(O)c1ccc2c(=O)c3ccccc3ccc2c1")
0
>>> meas_value("O=C(O)c1ccc2ccc3ccccc3c(=O)c2c1")
62.5
>>> meas_value("O=C(O)c1ccc2c(c1)C(=O)c1ccccc1CC2")
0
>>> meas_value("O=C(O)c1ccc2c(=O)c3cc(Cl)cc(Cl)c3ccc2c1")
0
>>> meas_value("Cn1c(=O)c2[nH]cnc2n(C)c1=O.Cn1c(=O)c2[nH]cnc2n(C)c1=O.NCCN [AMINOPHYLLINE]")
75

Field: next molecule
Problem: Provide only the value of recorded Activity for Cc1ccc2c(c1)C(=O)c1ccc(C(=O)O)cc1CC2
Solution: 62.5

* * *

Tested on: Cavia porcellus
Assay: Bronchodilator activity in guinea pig assessed as protection against histamine aerosol-induced bronchoconstriction at 100 mg/kg, ip treated for 15 mins prior to histamine aerosol-challenge measured after 5 mins relative to control
Type: functional
Settings: route intraperitoneal
Classify as follows. Reported Activity greater than or equal to 20%: 1. Reported Activity below: -1.

Take a look at these entries with their results.
>>> label("COc1ccc2c(c1)C(=O)c1cc(C(=O)O)ccc1CC2")
1
>>> label("CC(C)c1ccc2c(c1)C(=O)c1cc(C(=O)O)ccc1CC2")
1
>>> label("O=C(O)c1ccc2c(c1)C(=O)c1cc(O)ccc1CC2")
-1

Problem: Does O=C(O)c1ccc2c(c1)CCc1c(Cl)cc(Cl)cc1C2=O have a reported Activity of at least 20%?
Solution: 1

Problem: Does O=C(O)c1ccc2ccc3ccc(C(=O)O)cc3c(=O)c2c1 have a reported Activity of at least 20%?
Solution: 1
